Target: BACE1 (Homo sapiens, UniProt P56817)
Sequence (P56817 46-501): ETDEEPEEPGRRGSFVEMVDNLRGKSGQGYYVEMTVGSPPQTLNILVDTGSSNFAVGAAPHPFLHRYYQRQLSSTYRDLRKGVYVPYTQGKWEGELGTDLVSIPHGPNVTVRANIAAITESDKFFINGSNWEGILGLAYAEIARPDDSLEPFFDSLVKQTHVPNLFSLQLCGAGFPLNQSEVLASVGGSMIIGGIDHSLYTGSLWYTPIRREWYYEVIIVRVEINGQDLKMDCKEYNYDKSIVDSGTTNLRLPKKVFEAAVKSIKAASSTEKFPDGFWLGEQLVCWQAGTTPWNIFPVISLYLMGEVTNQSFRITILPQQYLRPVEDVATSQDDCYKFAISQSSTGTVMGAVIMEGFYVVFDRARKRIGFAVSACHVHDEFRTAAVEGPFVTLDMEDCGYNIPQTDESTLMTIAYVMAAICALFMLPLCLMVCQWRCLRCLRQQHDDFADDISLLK
Experimental endpoint: Ki (µM)
Reply with just the number (in µM).

// below: answered molecules
{"Item smiles": "Oc1cc(O)cc(Oc2c(O)cc(O)c3c2Oc2c(O)cc(O)cc2O3)c1", "Ki [µM]": 31.2}
{"Item smiles": "Oc1cc(O)cc(Oc2c(O)cc(O)c3c2Oc2c(O)cc(Oc4c(O)cc(Oc5c(O)cc(O)c6c5Oc5c(O)cc(O)cc5O6)cc4O)cc2O3)c1", "Ki [µM]": 20.1}

Please find the next molecule below.
Q: // lookup Ki | system=BACE1 (Homo sapiens, UniProt P56817) | key= `Oc1cc(O)cc(Oc2c(O)cc(O)c3c2Oc2c(cc(O)c(-c4c(O)cc5c(c4O)Oc4c(Oc6cc(O)cc(O)c6)c(O)cc(O)c4O5)c2O)O3)c1`
A: 13.9

###

These records show pKi for AChE (Electrophorus electricus, UniProt O42275).
# pKi: negative log10 of molar concentration; output just the value

// below: answered compounds
{"Item smiles": "Oc1cc(O)cc(Oc2c(O)cc(O)c3c2Oc2c(O)cc(O)cc2O3)c1", "pKi": 4.43}
{"Item smiles": "Oc1cc(O)cc(Oc2c(O)cc(O)c3c2Oc2c(O)cc(Oc4c(O)cc(Oc5c(O)cc(O)c6c5Oc5c(O)cc(O)cc5O6)cc4O)cc2O3)c1", "pKi": 4.91}

Please find the next compound below.
Q: // lookup pKi | system=AChE (Electrophorus electricus, UniProt O42275) | key= `Oc1cc(O)cc(Oc2c(O)cc(O)c3c2Oc2c(cc(O)c(-c4c(O)cc5c(c4O)Oc4c(Oc6cc(O)cc(O)c6)c(O)cc(O)c4O5)c2O)O3)c1`
A: 4.94

###

These records show pIC50 for BACE1 (Homo sapiens).
# pIC50: negative log10 of molar concentration; output just the value

// below: answered molecules
{"Item smiles": "Oc1cc(O)cc(Oc2c(O)cc(O)c3c2Oc2c(O)cc(O)cc2O3)c1", "pIC50": 5.12}
{"Item smiles": "Oc1cc(O)cc(Oc2c(O)cc(O)c3c2Oc2c(cc(O)c(-c4c(O)cc5c(c4O)Oc4c(Oc6cc(O)cc(O)c6)c(O)cc(O)c4O5)c2O)O3)c1", "pIC50": 5.79}

Q: Param item = `Oc1cc(O)cc(Oc2c(O)cc(O)c3c2Oc2c(O)cc(Oc4c(O)cc(Oc5c(O)cc(O)c6c5Oc5c(O)cc(O)cc5O6)cc4O)cc2O3)c1` ; retrieve measured pIC50.
A: 5.63
